- Assay system: human liver glycogen phosphorylase a (HLGPa) (Homo sapiens, UniProt P06737)
- Construct: creating a full-length cDNA fused at the 5′ end to codons for methionine-glycine-alanine-histidine; 6xHis tag (leader Met-Gly-Ala-His6-Gly-Gly) (N); made in house; host or cells: E. coli (bacterial expression plasmid pTXK1007LTev)
- Assay method text: Human liver glycogen phosphorylase a enzymatic activity assay (coupled, fluorescent resorufin readout, with and without 10 mM glucose)
- Assay type: biochemical
- Experimental conditions: human liver glycogen phosphorylase a; table does not say whether with or without 10 mM glucose
pIC50: −log10 of the molar value.
Answer no (0) if pIC50 is under 6, and yes (1) if it is 6 or more.

{"columns": ["Molecule", "Class label"],
 "data": [
  ["COc1ccc(-c2ccc(C(=O)O)c(NC(=O)Nc3c(Cl)cc(OC(F)(F)F)cc3Cl)c2)cc1", "no (0)"],
  ["Cc1cc(C)c(NC(=O)Nc2cc3ccccc3cc2C(=O)N[C@@](C)(CC(C)C)C(=O)O)c(C)c1", "yes (1)"],
  ["Cc1cc(C)c(NC(=O)Nc2cc(-c3ccccc3)cnc2C(=O)N[C@H](C(=O)O)C2CCCCC2)c(C)c1", "yes (1)"],
  ["Cc1cc(C)c(NC(=O)Nc2cc(-c3ccc(F)c(F)c3)cnc2C(=O)N[C@H](C(=O)O)[C@@H](C)OC(C)(C)C)c(C)c1", "yes (1)"],
  ["Cc1cc(C)c(NC(=O)Nc2cc3ccccc3cc2C(=O)N[C@H](c2nnn[nH]2)C(C)C)c(C)c1", "yes (1)"],
  ["O=C(O)CCN(Cc1ccccc1)C(=O)c1cc2ccccc2cc1NC(=O)Nc1c(Cl)cccc1Cl", "no (0)"]
]}

We next turn to a different molecule, shown below.
Data request: hey, is pIC50 for this one >= 6? CCCC[C@H](NC(=O)c1ccc(-c2ccc(OC)cc2)cc1NC(=O)Nc1c(C)cc(C)cc1C)C(=O)O
Data returned: yes (1)

* * *

List of IC50 values.
- Assay system: human liver glycogen phosphorylase a (HLGPa) (Homo sapiens)
- Construct: creating a full-length cDNA fused at the 5′ end to codons for methionine-glycine-alanine-histidine; 6xHis tag (leader Met-Gly-Ala-His6-Gly-Gly) (N); made in house; host or cells: E. coli (bacterial expression plasmid pTXK1007LTev)
- Assay method text: Human liver glycogen phosphorylase a enzymatic activity assay (coupled, fluorescent resorufin readout, with and without 10 mM glucose)
- Assay type: biochemical
- Experimental conditions: human liver glycogen phosphorylase a enzymatic activity assay
Counter-ions that a name gives are not always drawn.
# output: numeric value plus its unit

Before answering, review these 3 worked examples.
{"columns": ["Compound", "IC50"],
 "data": [
  ["COc1ccc(-c2cc(NC(=O)Nc3c(Cl)cc(OC(F)(F)F)cc3Cl)c(C(=O)O)s2)cc1", "2.7 µM"],
  ["O=C(Nc1cc2ccccc2cc1C(=O)N[C@H](C(=O)O)C1CCCCC1)Nc1c(F)cccc1F", "4.85 µM"],
  ["CCc1cccc(CC)c1NC(=O)Nc1ccccc1C(=O)N[C@@H](CC(=O)O)C(=O)O", "34.1 µM"]
]}

Data request: # get_value(readout= IC50, system= human liver glycogen phosphorylase a (HLGPa) (Homo sapiens)) for Cc1cccc(Cl)c1NC(=O)Nc1cc2ccccc2cc1C(=O)N[C@@H](Cc1cnc[nH]1)C(=O)O [Example 61, trifluoroacetate]
Data returned: 0.45 µM

* * *

- Assay system: human liver glycogen phosphorylase a (HLGPa) (Homo sapiens, UniProt P06737)
- Construct: creating a full-length cDNA fused at the 5′ end to codons for methionine-glycine-alanine-histidine; 6xHis tag (leader Met-Gly-Ala-His6-Gly-Gly) (N); made in house; host or cells: E. coli (bacterial expression plasmid pTXK1007LTev)
- Sequence (P06737 2-847 limits assumed): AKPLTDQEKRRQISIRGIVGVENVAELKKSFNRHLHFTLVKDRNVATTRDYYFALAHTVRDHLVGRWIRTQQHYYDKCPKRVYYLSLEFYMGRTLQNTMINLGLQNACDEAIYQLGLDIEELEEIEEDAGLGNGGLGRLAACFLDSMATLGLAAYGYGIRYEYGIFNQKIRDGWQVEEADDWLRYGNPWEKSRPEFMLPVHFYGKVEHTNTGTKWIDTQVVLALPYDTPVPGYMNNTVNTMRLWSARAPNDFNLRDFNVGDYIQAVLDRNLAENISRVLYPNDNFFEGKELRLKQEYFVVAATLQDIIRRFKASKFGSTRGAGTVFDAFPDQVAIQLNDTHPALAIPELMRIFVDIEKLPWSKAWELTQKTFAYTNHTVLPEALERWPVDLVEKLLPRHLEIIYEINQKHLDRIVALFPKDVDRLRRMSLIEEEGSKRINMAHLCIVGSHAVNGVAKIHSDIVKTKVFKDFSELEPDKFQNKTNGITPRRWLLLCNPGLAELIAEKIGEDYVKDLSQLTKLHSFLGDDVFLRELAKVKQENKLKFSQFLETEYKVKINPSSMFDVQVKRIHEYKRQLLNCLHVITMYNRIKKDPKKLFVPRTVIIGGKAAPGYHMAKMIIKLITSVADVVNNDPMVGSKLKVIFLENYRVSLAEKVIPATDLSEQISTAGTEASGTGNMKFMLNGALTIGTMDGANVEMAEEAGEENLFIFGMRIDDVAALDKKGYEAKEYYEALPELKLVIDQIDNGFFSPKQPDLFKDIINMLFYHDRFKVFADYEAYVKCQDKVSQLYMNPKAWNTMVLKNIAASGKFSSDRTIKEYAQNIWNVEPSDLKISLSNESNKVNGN
- Assay method text: Human liver glycogen phosphorylase a enzymatic activity assay (coupled, fluorescent resorufin readout, with and without 10 mM glucose)
- Assay type: biochemical
- Experimental conditions: human liver glycogen phosphorylase a enzymatic activity assay
Recorded endpoint: IC50 (µM)
Give the quantity in µM, number only.

Before answering, review these 5 worked examples.
{"columns": ["Compound", "Recorded endpoint", "Value units", "Value observed"],
 "data": [
  ["COc1cc(NC(=O)Nc2c(C)cccc2C)c(C(=O)N[C@H](C(=O)O)C2CCCCC2)cc1OC [Example 117]", "IC50", "µM", 14.7],
  ["COc1ccc(-c2nc(C(=O)NC3(C(=O)O)CCCCC3)c(NC(=O)Nc3c(C)cc(C)cc3C)s2)cc1 [Example 489]", "IC50", "µM", 0.034],
  ["Cc1cc(C)c(NC(=O)Nc2cc(F)ccc2C(=O)N[C@@H](CCNC(=O)OC(C)(C)C)C(=O)O)c(C)c1 [Example 515]", "IC50", "µM", 1.9],
  ["Cc1cccc(C(C)C)c1NC(=O)Nc1sc2c(c1C(=O)N[C@@H](CC(=O)O)C(=O)O)CCCC2 [Example 135]", "IC50", "µM", 17.9],
  ["CC(C)C[C@H](NC(=O)c1c(NC(=O)Nc2c(Cl)cccc2Cl)sc2c1CCCC2)C(=O)O [Example 131]", "IC50", "µM", 9.96]
]}

Data request: Fill blank: measured IC50 of the compound O=C(Nc1sc(-c2cccnc2)cc1C(=O)O)Nc1c(Cl)cccc1Cl [Example 414] is ____.
Data returned: 2.72

Data request: Fill blank: measured IC50 of the compound CC[C@H](C)[C@H](NC(=O)c1cc(OC)c(OC)cc1NC(=O)Nc1c(C)cccc1Cl)C(=O)O [Example 71] is ____.
Data returned: 22.3

* * *

- Assay system: human liver glycogen phosphorylase a (HLGPa) (Homo sapiens)
- Construct: creating a full-length cDNA fused at the 5′ end to codons for methionine-glycine-alanine-histidine; 6xHis tag (leader Met-Gly-Ala-His6-Gly-Gly) (N); made in house; host or cells: E. coli (bacterial expression plasmid pTXK1007LTev)
- Assay method text: Human liver glycogen phosphorylase a enzymatic activity assay (coupled, fluorescent resorufin readout, with and without 10 mM glucose)
- Assay type: biochemical
- Experimental conditions: human liver glycogen phosphorylase a enzymatic activity assay
pIC50: −log10 of the molar value. Counter-ions that a name gives are not always drawn.
Answer No if pIC50 is under 5, and Yes if it is 5 or more.

Reference set, count: 5
{"columns": ["Compound", "Class label"],
 "data": [
  ["Cc1cccc(C)c1NC(=O)Nc1cc(F)c(F)cc1C(=O)N[C@@H](CC(C)C)C(=O)O [Example 79]", "No"],
  ["Cc1cccc(C)c1NC(=O)Nc1sc2ccccc2c1C(=O)N[C@H](C(=O)O)C1CCCCC1 [Example 4]", "Yes"],
  ["Cc1ccccc1NC(=O)Nc1cc2ccccc2cc1C(=O)N[C@@H](CC(C)C)C(=O)O [Example 16]", "Yes"],
  ["Cc1cccc(C)c1NC(=O)Nc1sc2c(c1C(=O)N[C@H](C(=O)O)C(C)C)CCCC2 [Example 3]", "No"],
  ["Cc1ccccc1NC(=O)Nc1cc2ccccc2cc1C(=O)N[C@@H](Cc1cnc[nH]1)C(=O)O [Example 44, trifluoroacetate]", "Yes"]
]}

Data request: hey, is pIC50 for this one >= 5? Cc1cc(C)c(NC(=O)Nc2cc3ccccc3cc2C(=O)N[C@H](C(=O)O)C2CCC(O)CC2)c(C)c1 (stereo partly shown) [Example 502]
Data returned: Yes

Data request: hey, is pIC50 for this one >= 5? COc1ccc(-c2cc(NC(=O)Nc3c(C)cc(C)cc3C)c(C(=O)N[C@@H](CC3CCCCC3)C(=O)O)s2)cc1 [Example 444]
Data returned: Yes
